Provenance of the data: a melting point compilation (Tetko et al.; mined from patent text by program, amines drawn as free bases though some values may be those of a salt)

Entries and their melting point values follow.

| Molecule | melting point |
| --- | --- |
| Cc1ccc(Cc2cnc(NCCCCc3ncc(Br)cc3C)[nH]c2=O)cn1 | 151 to 152 °C |
| C=C(C1=C(CCC(=O)OC)C(=O)CC1OCc1ccc(Cl)cc1)c1ccccc1 (centres undefined) | 114 to 115 °C |
| COC(=O)C=C1C=C(C(C)(C)C)C(=O)C(C(C)(C)C)=C1 | 87 to 89 °C |
| COc1cc(OC)c(N2CCCC2)cc1/C=C/C(=O)c1ccc(S(N)(=O)=O)cc1 | 220 to 222 °C |
| Cc1c(-c2ccc(O)cc2)n(Cc2ccc(OCCN3CC4(C)CC3CC(C)(C)C4)cc2)c2ccc(O)cc12 (centres undefined) | 98 to 100 °C |
| CC1CC(=O)NN=C1c1ccc(Nc2nc(=O)cc[nH]2)cc1 (centres undefined) | 268 to 270 °C |
| CC1(C)CC(=O)C2=C(C1)NC1=C(C(=O)CC(C)(C)C1)C2c1ccc([N+](=O)[O-])c(OCc2ccccc2)c1 | 239 to 240 °C |
| COc1nn(Cc2ccc(OCc3nc(-c4ccccc4)oc3C)cc2)cc1CCC(=O)O | 127 to 128 °C |
| O=C1C(c2ccccc2)=CC(=O)c2c(O)c(-c3ccccc3)cc(O)c21 | 170 to 173 °C |

* * *

Entries and their melting point values follow.
Measurement label: melting point

| Compound | Data value |
| --- | --- |
| CCc1cccc(C)c1S(=O)(=O)c1nn(C(=O)N(CC)CC)cc1C#N | 101 to 102 °C |
| CC(C)(C)OC(=O)N1Cc2c(Br)sc(-c3ccccc3)c2C1 | 139 to 140 °C |
| O=C(OCC1OC(n2cnc3c(N(C(=O)c4ccccc4)C(=O)c4ccccc4)ncnc32)C(O)(C(=O)c2ccccc2)C1(O)C(=O)c1ccccc1)c1ccccc1 (configuration not stated) | 183 to 184 °C |
| NCCCC(=O)N1CCC(c2[nH]nc3c2C(=O)c2c(NC(=O)NN4CCOCC4)cccc2-3)CC1 | 172 to 174 °C |
| O=C(CCc1ccccc1)Nc1ccc2c(c1)C(=O)c1cc(NC(=O)CCc3ccccc3)ccc1C2=O | 268 °C |
| CS(=O)c1cc2n(c1C(=O)c1ccc(Br)cc1)CCC2C(=O)O (configuration not stated) | 226 to 227 °C |
| CCCc1c(OCC2COc3cc(CC(=O)O)ccc3O2)ccc(C(C)=O)c1O (configuration not stated) | 143 to 146 °C |
| COc1cccc(/C=C/c2nc3c(c(=O)n(C)c(=O)n3C)n2C)c1OC | 234 to 237 °C |
| O=C(CCN1CCN(c2cccc(C(F)(F)F)c2)CC1)Nc1ccccc1[N+](=O)[O-] | 185 to 188 °C |
| CS(=O)(=O)Oc1ccc(C(c2ccc(OS(C)(=O)=O)c([N+](=O)[O-])c2)(C(F)(F)F)C(F)(F)F)cc1[N+](=O)[O-] | 119 to 121 °C |
| C#CCOc1cc(O)ccc1-c1nc2cnccc2[nH]1 | 242 °C |
| COC(=O)CCCc1cc2nc(C(F)(F)F)ccc2n1S(=O)(=O)c1ccc(Cl)cc1 | 97 °C |
| CCCCn1c(=O)c2nn(S(=O)(=O)c3cccc4cccnc34)cc2n(CCCC)c1=O | 203 to 205 °C |
| COc1ccc(S(=O)(=O)N(Cc2cccnc2)[C@@H](C(=O)NOCc2ccccc2)C(C)C)cc1 | 74.5 to 76 °C |
| COc1ccc(C=C2SC(=O)N(CCc3ccccn3)C2=O)cc1-c1cc2c(cc1C)C(C)(C)CCC2(C)C | 170 to 171 °C |
| Cc1ccc(C(=O)C2=C(O)C(=O)N(c3ccc(C)nn3)C2c2ccc(C(F)(F)F)cc2)cc1 (configuration not stated) | 278 °C |
| CCNc1cccnc1N1CCN(C(=O)c2ccc(C(=O)NCc3ccccn3)cn2)CC1 | 129 to 131 °C |

* * *

| Compound | melting point |
| --- | --- |
| CN(C)C(=O)c1cccnc1C(=O)c1cccc(C(F)(F)F)c1 | 100 to 103 °C |
| CC(=O)c1ccc(C(C)(c2ccc(C(C)=O)cc2)c2ccc(C(C)=O)cc2)cc1 | 232 °C |
| CCCCCCCCCCCCCCCCCCOC(=O)ON1C(=O)c2ccccc2C1=O | 83 to 89 °C |
| CC(C)COc1ccc2c(c1)c(=O)n(CCC(=O)O)c(=O)n2Cc1c[nH]c2ccccc12 | 199 to 201 °C |
| C[C@H]1C[C@@](O)(c2cccc(S(=O)(=O)c3ccc4c(c3)CCC(=O)N4)c2)CCO1 | 178 to 180 °C |
| Cc1cc(Br)ccc1-n1c(CF)nc2ccc([N+](=O)[O-])cc2c1=O | 208 to 210 °C |
| COc1cc(-c2ccc(Cl)s2)cc2oc(=O)c(C)c(C)c12 | 152 to 154 °C |
| CCOC(=O)Cc1nc(-c2ccccc2)oc1-c1cccs1 | 82 to 83 °C |
| CN(C)[C@@H]1Cc2cccc(O)c2C[C@H]1O (relative stereo) | 168 to 170 °C |
| COc1ccc2nc(C(=O)O)c(OCc3ccccc3)cc2c1 | 272 to 275 °C |
| OCC1CNC2Cc3c[nH]c4cccc(c34)C2(O)C1 (stereo unspecified) | 145 to 149 °C |
| Oc1ccc2cc(Br)cc(F)c2c1 | 124 to 126 °C |
| COc1ccc(C2CCCC(=O)O2)cc1 (stereo unspecified) | 57.5 to 59.5 °C |
| CC(=O)NCCc1cccc2ccc(OCCCCOc3ccc4occ(CCNC(C)=O)c4c3)cc12 | 160 to 162 °C |
| CC(C)NC(=O)c1cc(Oc2ccc3c(C(=O)Nc4cccc(C(F)(F)F)c4)cccc3c2)ncn1 | 205 to 208 °C |
| CC(C)Nc1nc2c(F)c(F)c(Cl)cc2[nH]1 | 175 to 178 °C |
| CCC(O)(c1ccccc1)c1cc(OC)c(OC)c(OC)c1 (stereo unspecified) | 123 to 124 °C |
| CCSc1nc(N)c(C(N)=S)s1 | 180 to 183 °C |
| CC(C)C(=O)C(=CN(C)C)c1ccc(Cl)cc1 | 95 °C |
| NC(=O)NN=Cc1ccc(Oc2cccnc2)cc1 | 160 to 162 °C |
| Cc1cc(-c2ccc(Cl)cc2)nc(-c2ccnc(-c3ccc(S(N)(=O)=O)s3)c2)n1 | 232 °C |

* * *

Entries and their melting point values follow.
Measurement label: melting point

| Compound | Data value |
| --- | --- |
| CN(Cc1ccc2cc(NS(C)(=O)=O)ccc2n1)C1Cc2ccc(NS(C)(=O)=O)cc2C1 (stereo not given) | 189 to 191 °C |
| O=C(/C=C/c1ccc2ccccc2n1)NO | 160 °C |
| OC(c1ccc(Cl)cc1)(c1cccnc1)c1ccc2noc(-c3cccc(Cl)c3)c2c1 (stereo not given) | 199 °C |
| CC1(C)CC(O)C(C)(C)c2cc(C=O)ccc21 (stereo not given) | 76 to 78 °C |
| Cc1oc(-c2ccccc2)nc1COc1ccc(C(C)CCCC#N)cc1 (stereo not given) | 76 to 77 °C |
| CC(C)c1nc2c(cc1CO)COC(=O)N2c1ccc(F)cc1 | 154 °C |
| CC(C)(C)c1cc(-c2nn(CCCC(=O)O)c3ncccc23)cc(C(C)(C)C)c1O | 192 to 194 °C |
| CNc1c(NCCSCc2ccc(CN(C)C)s2)c(=O)c1=O | 185 to 187 °C |
| CN1CCN(Cc2ccc(Nc3ccnc4cc(C(F)(F)F)ccc34)cc2)CC1 | 218 to 220 °C |
| Cc1ccc2c(c1)C(NC(=O)CCCN1CCN(c3ccc(F)cc3)CC1)c1ccccc1CS2(=O)=O (stereo not given) | 163 to 165 °C |

* * *

| Compound | melting point |
| --- | --- |
| CCOC(=O)N=C(OCC)c1ccccc1Cl | 65 to 66 °C |
| CC1(C)CC(=O)c2c(SCCO)sc(-c3cc[nH]n3)c2C1 | 182 to 185 °C |
| CON(C)C(=O)C(CO[Si](C)(C)C(C)(C)C)NC(=O)OC(C)(C)C (stereo not given) | 71 to 72 °C |
| COC(=O)c1ncsc1CCNC(=O)OCc1ccccc1 | 108 to 110 °C |
| Brc1ccc(OCCC(c2ccccc2)c2ccccc2)cc1 | 70 to 71 °C |
| CCCCOc1ccc(CCCOc2nn(CC)cc2CC(=O)O)c(Oc2ccc(C(F)(F)F)cn2)c1 | 81 to 82 °C |
| Cc1cccc(-c2[nH]c(C(C)C)nc2-c2cccc(-c3ccc(N)cn3)c2)n1 | 119 to 124 °C |
| Cc1ccc(Cl)c2nc3cccc(C(=O)O)c3nc12 | 255 to 257 °C |
| CCOC(=O)COc1ccc([N+](=O)[O-])cc1C1C(C(=O)OCC)=C(C)NC(C)=C1C(=O)OCC | 175 °C |
| CCc1cccc(C(=O)c2nc(OC)cc(OC)n2)c1N | 122 to 123 °C |
